# METHOD: Quantitative High-Throughput drug screen in 47 multiple myeloma cell lines against the NCATS MIPE library collection: ARP1_JJKsccF8 cell viability assay (AID 1918928; further: nearly all actives have a fitted effect of over 40% in size;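 on viability: 100% = DMSO only wells and 0% = medium only wells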)
# MEASUREMENT_CONTEXT: ARP1 myeloma cells viability, CellTiter-Glo ATP, 48 h; series mostly up to 45.8 µM
# From the text: PI: Beverly A. Mock Ph.D. Laboratory of Cancer Biology and Genetics, Center for Cancer Research, National Cancer Institute, National Institute of Health, Bethesda, Maryland […] 5; Detector; 425V; Luminescence; Viewlux PerkinElmer. […] 1. […] Briefly, the corresponding myeloma cell lines were screened in 1,536-well plates with 500 cells, 5-uL per well for inhibition of cell viability (assessed by measuring ATP levels with CellTiterGlo). […]
Inconclusive results are not listed. Activity calls are given as the source filed them. The call rests on the fitted dose curve; in most records, active means well fitted cell-killing curve with a large enough effect; inconclusive means small, poorly fitted or top-dose-only effect, or effect the other way; inactive means no such curve, though single readings can be large or run the other way.
Return exactly one item of 1 (active), 0 (inactive)

COMPOUND	CLASS_LABEL
CC[C@H](C)C(=O)O[C@H]1C[C@@H](C)C=C2C=C[C@H](C)[C@H](CC[C@@H]3C[C@@H](O)CC(=O)O3)[C@H]21	1
CC1=C(C(=O)O)N2C(=O)[C@@H](NC(=O)C(N)c3ccccc3)[C@H]2SC1 (stereo partly specified)	0
OCc1ccc(-c2nn(Cc3ccccc3)c3ccccc23)o1	0

Alright, here's another compound for you.
Per the records of this test, what outcome belongs to OC(Cn1cncn1)(Cn1cncn1)c1ccc(F)cc1F ?
0

* * *

# METHOD: Quantitative High-Throughput drug screen in 47 multiple myeloma cell lines against the NCATS MIPE library collection: ARP1_JJKsccF8 cell viability assay (AID 1918928)
# MEASUREMENT_CONTEXT: ARP1 myeloma cells viability, CellTiter-Glo ATP, 48 h; series mostly up to 45.8 µM
# Excerpt: PI: Beverly A. Mock Ph.D. Laboratory of Cancer Biology and Genetics, Center for Cancer Research, National Cancer Institute, National Institute of Health, Bethesda, Maryland […] 5; Detector; 425V; Luminescence; Viewlux PerkinElmer. […] 1. […] Briefly, the corresponding myeloma cell lines were screened in 1,536-well plates with 500 cells, 5-uL per well for inhibition of cell viability (assessed by measuring ATP levels with CellTiterGlo). […]
Records with an inconclusive call do not appear. Active and inactive are the calls of the source. Calls follow the shape of the dose curve; as a rule, active = well fitted cell-killing curve with a large enough effect; inconclusive = small, poorly fitted or top-dose-only effect, or effect the other way; inactive = no such curve, though single readings can be large or run the other way.
Return exactly one item of yes (1) = active, no (0) = inactive

MOLECULE	CLASS_LABEL
CCOc1cc(N)c(Cl)cc1C(=O)NCC1CN(Cc2ccc(F)cc2)CCO1 (stereo not given)	no (0)
COC(=O)Nc1nc2ccc(C(=O)c3ccccc3)cc2[nH]1	yes (1)
CC(=O)CC(c1ccccc1)c1c(O)c2ccccc2oc1=O (stereo not given)	no (0)
CN1CCN(c2c(F)cc3c(=O)c(C(=O)O)cn4c3c2OCN4C)CC1	no (0)
CCCc1nc(C)c2c(=O)[nH]c(-c3cc(S(=O)(=O)N4CCN(CC)CC4)ccc3OCC)nn12	yes (1)

Per the records of this test, what outcome belongs to O=c1cc(O)c(Cl)c[nH]1 ?
no (0)

Per the records of this test, what outcome belongs to CCOC(=O)c1ccc(OC(=O)CCCCCN=C(N)N)cc1 ?
no (0)

Per the records of this test, what outcome belongs to NS(=O)(=O)c1cc2c(cc1Cl)NC(C(Cl)Cl)NS2(=O)=O (stereo not given) ?
no (0)

Per the records of this test, what outcome belongs to COc1nc(N)nc2c1ncn2[C@@H]1O[C@H](CO)[C@@H](O)[C@@H]1O ?
no (0)

Per the records of this test, what outcome belongs to CN(C)c1ccc(C(=C2C=CC(=[N+](C)C)C=C2)c2ccc(N(C)C)cc2)cc1 ?
yes (1)

Per the records of this test, what outcome belongs to CCCCc1oc2ccc(NS(C)(=O)=O)cc2c1C(=O)c1ccc(OCCCN(CCCC)CCCC)cc1 ?
yes (1)

Per the records of this test, what outcome belongs to NC(=O)c1cccnc1 ?
no (0)

Per the records of this test, what outcome belongs to CO[C@@]12[C@H](COC(N)=O)C3=C(C(=O)C(C)=C(N)C3=O)N1C[C@@H]1N[C@@H]12 ?
yes (1)

Per the records of this test, what outcome belongs to CNCC[C@H](Oc1cccc2ccccc12)c1cccs1 ?
yes (1)

Per the records of this test, what outcome belongs to Cc1cccc(N(C)C(=S)Oc2ccc3ccccc3c2)c1 ?
no (0)

* * *

# METHOD: qHTS of pediatric cancer cell lines to identify multiple opportunities for drug repurposing: Primary screen for U-2 OS cells (AID 1347096);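 further: plate controls were DMSO wells for no effect and bortezomib positive control wells for full effect; nearly all actives have a fitted effect of over 50% in size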
# MEASUREMENT_CONTEXT: U-2 OS viability, CellTiter-Glo luminescence, 48 h; series mostly up to 46 µM
Records with an inconclusive call do not appear. The source made the active and inactive calls. Calls follow the shape of the dose curve; as a rule, active = well fitted cell-killing curve with a large enough effect; inconclusive = small, poorly fitted or top-dose-only effect; inactive = flat fitted curve, though single readings scatter.
Return exactly one item of active, inactive

Solved entries (count: 3):
COMPOUND	CLASS_LABEL
COc1cc2c(Nc3ccc(Br)cc3F)ncnc2cc1OCC1CCN(C)CC1	inactive
NC(=O)N1c2ccccc2CC(=O)c2ccccc21	inactive
CC(C)OC(=O)OCOP(=O)(CO[C@H](C)Cn1cnc2c(N)ncnc21)OCOC(=O)OC(C)C	inactive

Per the records of this test, what outcome belongs to C[C@@H](CN1CC(=O)NC(=O)C1)N1CC(=O)NC(=O)C1 ?
inactive

Per the records of this test, what outcome belongs to O=S(=O)(c1cccc2cnccc12)N1CCCNCC1 ?
inactive

Per the records of this test, what outcome belongs to COc1ncnc(NS(=O)(=O)c2ccc(N)cc2)c1OC ?
inactive

Per the records of this test, what outcome belongs to Cc1cccc(Nc2ccncc2S(=O)(=O)NC(=O)NC(C)C)c1 ?
inactive

Per the records of this test, what outcome belongs to COc1cccc(N(C)C(=S)Oc2ccc3c(c2)CCCC3)n1 ?
inactive

* * *

# METHOD: Cell Viability - LYMP1-002 - Assay at 16 hr (AID 948);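 further: 0% = DMSO alone and full effect = 92 µM tetraoctylammonium bromide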
# MEASUREMENT_CONTEXT: LYMP1-002 lymphoblastoid cell viability; series mostly up to 92.2 µM
Results filed as inconclusive are left out. Active and inactive are the calls of the source. The call rests on the fitted dose curve; in most records, active means well fitted cell-killing curve with a large enough effect; inconclusive means small, poorly fitted or top-dose-only effect; inactive means flat fitted curve, though single readings scatter.
Return exactly one item of y = active, n = inactive

Per the records of this test, what outcome belongs to Cc1nnc(NS(=O)(=O)c2ccc(N)cc2)s1 ?
n

* * *

# METHOD: Cell Viability - SK-N-SH (AID 435);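 further: compound exposure lasted 40 h at 37 °C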
# MEASUREMENT_CONTEXT: SK-N-SH neuroblastoma cell viability qHTS
Results filed as inconclusive are left out. Calls of active or inactive are those of the source. Calls follow the shape of the full dose curve.
Return exactly one item of label 1 for active, label 0 for inactive

Solved entries (count: 2):
CC1=NN(c2ccccc2)C(=O)C1 label 0
CCc1cc(C(N)=S)ccn1 label 0

Per the records of this test, what outcome belongs to Cc1nnc(NS(=O)(=O)c2ccc(N)cc2)s1 ?
label 0

Per the records of this test, what outcome belongs to Cc1ncc([N+](=O)[O-])n1CCO ?
label 0

Per the records of this test, what outcome belongs to CC(=O)Oc1ccccc1C(=O)Nc1ncc([N+](=O)[O-])s1 ?
label 1

Per the records of this test, what outcome belongs to CC(=O)[C@H]1CC[C@H]2[C@@H]3CCC4=CC(=O)CC[C@]4(C)[C@H]3CC[C@]12C ?
label 0

Per the records of this test, what outcome belongs to Cc1ccnc2c1NC(=O)c1cccnc1N2C1CC1 ?
label 0

Per the records of this test, what outcome belongs to O=C(O)c1cc(=O)[nH]c(=O)[nH]1 ?
label 0

Per the records of this test, what outcome belongs to Cc1cc(NS(=O)(=O)c2ccc(N)cc2)no1 ?
label 0

Per the records of this test, what outcome belongs to NNC(=O)c1ccncc1 ?
label 0

* * *

# METHOD: Quantitative High-Throughput drug screen in 47 multiple myeloma cell lines against the NCATS MIPE library collection: Karpas25_ECACC cell viability assay (AID 1918968; further: nearly all actives have a fitted effect of over 35% in size)
# MEASUREMENT_CONTEXT: Karpas25 myeloma viability, CellTiter-Glo ATP, 48 h; series mostly up to 45.8 µM
Records with an inconclusive call do not appear. Active and inactive are the calls of the source. Calls come from the whole dose curve; as a rule, active = well fitted cell-killing curve with a large enough effect; inconclusive = small, poorly fitted or top-dose-only effect, or effect the other way; inactive = no such curve, though single readings can be large or run the other way.
Return exactly one item of active, inactive

Solved entries (count: 3):
COMPOUND	CLASS_LABEL
NC1(c2ccc(-c3nc4ccn5c(=O)[nH]nc5c4cc3-c3ccccc3)cc2)CCC1	active
N=C(N)c1ccc(OCCCCCOc2ccc(C(=N)N)cc2)cc1	active
Cc1nnc(C(=O)NC(C)(C)c2nc(C(=O)NCc3ccc(F)cc3)c(O)c(=O)n2C)o1	inactive

Per the records of this test, what outcome belongs to CNNCc1ccc(C(=O)NC(C)C)cc1 ?
active

Per the records of this test, what outcome belongs to COc1c(N2CCNC(C)C2)c(F)cc2c(=O)c(C(=O)O)cn(C3CC3)c12 (stereo not given) ?
inactive

Per the records of this test, what outcome belongs to CC(C(=O)O)c1ccc2c(c1)CC(=O)c1ccccc1S2 (stereo not given) ?
active

Per the records of this test, what outcome belongs to C1CCC(C(CC2CCCCN2)C2CCCCC2)CC1 (stereo not given) ?
active

Per the records of this test, what outcome belongs to CC(C)(C)C(=O)OCOP(=O)(COCCn1cnc2c(N)ncnc21)OCOC(=O)C(C)(C)C ?
active

Per the records of this test, what outcome belongs to CC(C)C[C@H](NC(=O)[C@H](CCc1ccccc1)NC(=O)CN1CCOCC1)C(=O)N[C@@H](Cc1ccccc1)C(=O)N[C@@H](CC(C)C)C(=O)[C@@]1(C)CO1 ?
active

Per the records of this test, what outcome belongs to CNCC[C@H](Oc1cccc2ccccc12)c1cccs1 ?
active
